# reported AUC(0-t); entries follow
Test: Pharmacokinetic study in rats (oral gavage and tail vein injection, plasma LC-MS/MS)
Assay type: in vivo
Settings: rat, SD rats, Po, 3 mg/kg
Measured Property: AUC(0-t)

Record Smiles	Measured Property	Result Value
Cc1nc(-c2nnn(C)c2CNC(=O)OCc2ccccc2)ccc1C#CC1(CC(=O)O)CC1	AUC(0-t)	5 to 10 µg·h/mL
CCCC[C@@H](C)OC(=O)Nc1c(-c2ccc(C#CC3(CC(=O)O)CC3)c(C)n2)nnn1C	AUC(0-t)	10 to 20 µg·h/mL

====

Assay: Pharmacokinetic study in rats (oral gavage and tail vein injection, plasma LC-MS/MS)
Format: in vivo
Conditions: male, SD, rat, po, 3 mg/kg
half-life under 300 min gets 1, anything at or over 300 min gets 0.

Compound	Answer Label
Cc1nc(-c2nnn(C)c2CNC(=O)OCCC(C)C)ccc1C#CC1(CC(=O)O)CC1 [compound 253]	1
Cc1nc(-c2nnn(C)c2COc2nccc(C3CC(F)(F)C3)n2)ccc1C#CC1(CC(=O)O)CC1 [compound 216]	1
CCCN(C)C(=O)OCc1c(-c2ccc(O[C@H]3CCC[C@H](C(=O)O)C3)c(C)n2)nnn1C [Control compound 1, reference compound]	1
Cc1nc(-c2nnn(C)c2CNc2nccc(C3CCC3)n2)ccc1C#CC1(CC(=O)O)CC1 [compound 214]	0
C[C@H](C1CC1)N(C)C(=O)OCc1c(-c2ccc(C#CC3(CC(=O)O)CC3)cn2)nnn1C [compound 002]	1
Cc1nc(-c2nnn(C)c2NC(=O)O[C@H](C)CC(C)(F)F)ccc1C#C[C@@H]1CC[C@H]1C(=O)O (mixture of isomers) [213-B]	0

====

Target: LPAR1 receptor (Homo sapiens, UniProt Q92633)
Construct: expressed in transfected cells
Sequence (Q92633 whole entry): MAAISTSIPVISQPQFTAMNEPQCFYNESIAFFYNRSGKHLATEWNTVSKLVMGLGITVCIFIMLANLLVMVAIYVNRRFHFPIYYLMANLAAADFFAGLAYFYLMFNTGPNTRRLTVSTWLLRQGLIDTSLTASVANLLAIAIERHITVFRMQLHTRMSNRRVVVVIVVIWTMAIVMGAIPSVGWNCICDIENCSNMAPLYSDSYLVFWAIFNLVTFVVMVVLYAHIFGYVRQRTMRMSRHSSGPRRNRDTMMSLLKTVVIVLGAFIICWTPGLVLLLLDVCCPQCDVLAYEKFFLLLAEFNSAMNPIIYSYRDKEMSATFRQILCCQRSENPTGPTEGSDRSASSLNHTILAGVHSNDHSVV
Test: LPAR1 in vitro biological activity evaluation 2: HTRF cAMP kit (LANCE Ultra cAMP Kit) assay in CHO stable transfected cell line expressing the LPAR1 receptor
Type: cell-based
Conditions: Table 2, read-out: LPAR1 inhibitory activity IC50

Compound	Units Text	IC50
CCc1nc(-c2nnn(C)c2NC(=O)O[C@H](C)CC(C)(F)F)ccc1C#CC1(CC(=O)O)CC2(CC2)C1	nM	4.5
Cc1nc(-c2nnn(C)c2NC(=O)O[C@H](C)CC(C)C)ccc1C#C[C@@H]1CC[C@H]1C(=O)O	nM	93.2
CCCCN(C)C(=O)OCc1c(-c2ccc(C#CC3(CC(=O)O)CC(OC)C3)c(C)n2)nnn1C (stereo not shown)	nM	19.6
CCC(F)(F)[C@@H](C)OC(=O)Nc1c(C)noc1-c1ccc(C#CC2(CC(=O)O)CC(OC)C2)c(Cl)n1 (stereo partly shown)	nM	33.6
CCOC1CC(C#Cc2ccc(-c3nnn(C)c3NC(=O)O[C@H](C)C(F)(F)CC)nc2C(F)(F)F)(CC(=O)O)C1 (stereo partly shown)	nM	8.6
Cc1nc(-c2onc(C)c2NC(=O)O[C@H](C)CC(C)(F)F)ccc1C#C[C@@H]1CC[C@H]1C(=O)O	nM	83.9
CCC(F)(F)[C@@H](C)OC(=O)Nc1c(-c2ccc(C#CC3(CC(=O)O)CC(OC)C3)c(C(F)(F)F)n2)nnn1C (stereo partly shown)	nM	38.2

====

Assay: Pharmacokinetic study in rats (oral gavage and tail vein injection, plasma LC-MS/MS)
Assay type: in vivo
Conditions: rat, in vivo, SD rats, Po, 1 mg/kg, read-out: Cmax
Measured Property: Cmax

Compound	Result Value
Cc1nc(-c2nnn(C)c2NC(=O)O[C@H](C)CCC(C)(F)F)ccc1C#CC1(CC(=O)O)CC1	200 to 800 ng/mL
Cc1nc(-c2nnn(C)c2COC(=O)N(C)CCC(C)(F)F)ccc1C#CC1CCC1C(=O)O (racemic)	200 to 800 ng/mL
Cc1nc(-c2nnn(C)c2NC(=O)O[C@H](C)CC(C)(C)F)ccc1C#C[C@@H]1CC[C@H]1C(=O)O	200 to 800 ng/mL
Cc1nc(-c2nnn(C)c2NC(=O)OC(C)CC(C)(F)F)ccc1C#CC1CC1C(=O)O (stereo not shown)	800 to 5000 ng/mL

Values were extracted from patent EP4755881A1.
